Recorded MIC, one value per entry.
# Test system: Salmonella typhi
# assay comment: Antibacterial activity against Salmonella typhi pateint isolate
# Format: functional, Salmonella enterica subsp. enterica serovar Typhi
# condition context: Salmonella enterica
property: MIC (µg/mL)

- O=Cc1cn(-c2nc3cc(Cl)cc(Cl)c3o2)nc1-c1ccc(Cl)c(Cl)c1: 30
- O=Cc1cn(-c2nc3cc(Cl)cc(Cl)c3o2)nc1-c1ccc(O)cc1: 30
- O=Cc1cn(-c2nc3cc(Cl)cc(Cl)c3o2)nc1-c1ccc(Br)cc1: 30
- Cc1ccc(-c2nn(-c3nc4cc(Cl)cc(Cl)c4o3)cc2C=O)cc1: 30
- COc1ccc(-c2nn(-c3nc4cc(Cl)cc(Cl)c4o3)cc2C=O)cc1: 40

###

As shown below, each of these molecules has a reported MIC value.
# Test system: Aspergillus niger
# assay comment: Antifungal activity against Aspergillus niger
# Assay type: functional
property: MIC (µg/mL)

- COc1ccc(-c2nn(-c3nc4cc(Cl)cc(Cl)c4o3)cc2C=O)cc1: 30
- O=Cc1cn(-c2nc3cc(Cl)cc(Cl)c3o2)nc1-c1ccc(Br)cc1: 20
- O=Cc1cn(-c2nc3cc(Cl)cc(Cl)c3o2)nc1-c1ccc(Cl)c(Cl)c1: 40
- O=Cc1cn(-c2nc3cc(Cl)cc(Cl)c3o2)nc1-c1ccc(O)cc1: 30
- Cc1ccc(-c2nn(-c3nc4cc(Cl)cc(Cl)c4o3)cc2C=O)cc1: 30

###

# Test system: Escherichia coli
# assay comment: Antibacterial activity against Escherichia coli pateint isolate
# Format: functional
property: MIC (µg/mL)

* O=Cc1cn(-c2nc3cc(Cl)cc(Cl)c3o2)nc1-c1ccc(O)cc1 | 30
* O=Cc1cn(-c2nc3cc(Cl)cc(Cl)c3o2)nc1-c1ccc(Cl)c(Cl)c1 | 30
* O=Cc1cn(-c2nc3cc(Cl)cc(Cl)c3o2)nc1-c1ccc(Br)cc1 | 20
* Cc1ccc(-c2nn(-c3nc4cc(Cl)cc(Cl)c4o3)cc2C=O)cc1 | 40
* COc1ccc(-c2nn(-c3nc4cc(Cl)cc(Cl)c4o3)cc2C=O)cc1 | 40
